FYI, the data here is from patent US12590062B2.

Biological target: PD-1/PD-L1 (Homo sapiens, UniProt Q9NZQ7)
Sequence (Q9NZQ7 19-238 limits assumed): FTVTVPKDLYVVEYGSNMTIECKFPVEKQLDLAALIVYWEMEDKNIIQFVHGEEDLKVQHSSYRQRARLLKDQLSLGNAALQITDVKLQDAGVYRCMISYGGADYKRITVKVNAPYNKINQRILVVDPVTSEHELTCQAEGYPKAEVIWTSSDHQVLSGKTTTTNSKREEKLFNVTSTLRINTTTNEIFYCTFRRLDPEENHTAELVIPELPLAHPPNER
Assay: PD-1/PD-L1 biochemical protein-protein interaction assay (ALPHA)
Format: binding
Settings: 0.3 nM His tagged PD-L1, 2.5 nM biotinylated Fc-PD-1, 60 minutes at 25° C., read-out: IC50 PD-L1-PD-1 Alpha IC50-mono PD-L1-fcP-D1
What pIC50 was measured for each of the following?
Convention used: pIC50 is expressed as -log10 of the molar concentration.

Which pIC50 value belongs to Cc1c(COc2cc(OCc3cc(S(C)(=O)=O)cc(S(C)(=O)=O)c3)c(CN[C@@](C)(CO)C(=O)O)cc2Cl)cccc1-c1cccc(-c2ccc(CCCN3CC[C@@H](O)C3)cc2)c1C ? 9.79

Again, but for COc1nc(OCc2cccc(-c3cccc(COc4nc(OC)c(CNC[C@@H](O)CC(=O)O)cc4Br)c3C)c2C)c(Br)cc1CNC[C@@H](O)CC(=O)O 9.22

Again, but for Cc1c(COc2ccc(CNC[C@@H](O)CC(=O)O)cc2Cl)cccc1-c1cccc(COc2ccc(CNC[C@@H](O)CC(=O)O)cc2Cl)c1C 9.10

Again, but for Cc1c(COc2cc(OCc3cncc(C#N)c3)c(CN[C@@](C)(CO)C(=O)O)cc2Cl)cccc1-c1cccc(-c2ccc(C3CCCN3CCO)cc2)c1C (some centres unmarked) 9.87

Again, but for COc1nc(O[C@H]2CCc3c(-c4cccc(-c5ccc(C6=NCCN6)c(OC)n5)c4Cl)cccc32)c(Br)cc1CNC[C@@H](O)CC(=O)O 10.18

* * *

What pEC50 was measured for each of the following?
Target: PD-1/PD-L1 interaction (Homo sapiens, UniProt Q9NZQ7)
Construct: expressed in transfected cells; host or cells: CHO cells (aAPC-PD-L1) co-cultured with Jurkat cells overexpressing PD-1 and an NFAT-luciferase reporter
Sequence (Q9NZQ7 19-290): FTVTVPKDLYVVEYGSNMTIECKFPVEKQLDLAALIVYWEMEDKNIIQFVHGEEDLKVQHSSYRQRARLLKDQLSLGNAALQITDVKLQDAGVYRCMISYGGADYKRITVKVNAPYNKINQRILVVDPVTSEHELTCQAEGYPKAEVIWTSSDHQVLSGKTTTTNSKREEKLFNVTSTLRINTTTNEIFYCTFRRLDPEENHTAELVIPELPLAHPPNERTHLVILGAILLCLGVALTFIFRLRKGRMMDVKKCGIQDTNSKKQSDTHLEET
Experiment: PD-1/PD-L1 NFAT reporter co-culture assay
Assay type: cell-based
Details: Jurkat PD-1 NFAT-luciferase cells co-cultured with aAPC-PD-L1 CHO cells, 6 hrs at 37° C.; read-out: EC50 NFAT Luciferase
Convention used: pEC50 is expressed as -log10 of the molar concentration.

Which pEC50 value belongs to COc1nc(-c2cccc(-c3cccc4c3CC[C@@H]4Oc3nc(OC)c(CN4CC5(CCC(=O)N5)C4)cc3Cl)c2Cl)ccc1CN1CC2(CCC(=O)N2)C1 ? 6.92

Again, but for Cc1c(COc2nc(OCc3cncc(S(C)(=O)=O)c3)c(CN[C@@](C)(CO)C(=O)O)cc2Br)cccc1-c1cccc(COc2nc(OCc3cncc(S(C)(=O)=O)c3)c(CN[C@@](C)(CO)C(=O)O)cc2Br)c1C 6.73

Again, but for Cc1c(COc2cc(OCc3cncc(C#N)c3)c(CNC[C@@H](O)CC(=O)O)cc2Cl)cccc1-c1cccc(-c2nc3c(C)c(CNC[C@@H](O)CC(=O)O)ccc3s2)c1C 6.82

Again, but for COc1nc(OCc2cccc(-c3cccc(COc4nc(OC)c(CNC5(C(=O)O)CC5)cc4Cl)c3C)c2C)c(Cl)cc1CNC1(C(=O)O)CC1 6.28

Again, but for COc1nc(-c2cccc(-c3cccc4c3CC[C@@H]4Oc3nc(OC)c(CN4CC[C@H](C(=O)O)C4)cc3Cl)c2Cl)ccc1CN1CC(C)(O)C1 7.85

Again, but for N#Cc1cncc(COc2nc(OCc3cccc(-c4cccc(COc5nc(OCc6cncc(C#N)c6)c(CNC[C@@H](O)CC(=O)O)cc5Br)c4Cl)c3Cl)ccc2CNC[C@@H](O)CC(=O)O)c1 5.90

Again, but for COc1nc(OCc2cccc(-c3cccc(COc4nc(OC)c(CN(C)CCN5CCOCC5)cc4Br)c3C)c2C)c(Br)cc1CN(C)CCN1CCOCC1 6.00

Again, but for Cc1c(COc2cc(OCc3cncc(C#N)c3)c(CN[C@@](C)(CO)C(=O)O)cc2Cl)cccc1-c1cccc(-c2cccc([C@@H](C)N)c2)c1C 6.95

Again, but for Cc1c(-c2ccc(OCCNC[C@H](O)CC(=O)O)cc2)cccc1-c1cccc(-c2ccc(OCCNC[C@H](O)CC(=O)O)cc2)c1C 4.46

Again, but for Cc1c(-c2ccc(CN3CC[C@@H](O)C3)cc2)cccc1-c1cccc(-c2ccc(CNC[C@@H](O)CC(=O)O)c(OCCCC#N)c2)c1C 6.05

* * *

Molecular target: PD-1/PD-L1 (Homo sapiens, UniProt Q9NZQ7)
Assay: PD-1/PD-L1 biochemical protein-protein interaction assay (ALPHA)
Details: 0.3 nM His tagged PD-L1, 2.5 nM biotinylated Fc-PD-1, 60 minutes at 25° C., read-out: IC50 PD-L1-PD-1 Alpha IC50-mono PD-L1-fcP-D1
Metric: pIC50
Convention used: pIC50 is expressed as -log10 of the molar concentration.

Which pIC50 value belongs to COc1nc(O[C@H]2CCc3c(-c4cccc(-c5ccc(C6=N[C@H](C)CN6)c(OC)n5)c4Cl)cccc32)ccc1CN[C@@](C)(CO)C(=O)O [Example 778] ? 9.95

Again, but for Cc1c(COc2cc(OCc3cncc(C#N)c3)c(CNC(C)(CO)C(=O)O)cc2Cl)cccc1-c1cccc(-c2ccc(CN3CCC4(CC3)CNC4=O)cc2)c1C (centres unmarked) [Example 443] 10.19

Again, but for COc1nc(-c2cccc(-c3cccc(-c4ccn5cc(CN6CC(O)C6)nc5c4)c3Cl)c2Cl)ccc1CN1CC(O)C1 [Example 616] 9.53

Again, but for Cc1c(COc2cc(OCc3cncc(C#N)c3)c(CNC[C@@H](O)CC(=O)O)cc2Cl)cccc1-c1cccc(-c2ccc(OCCNC[C@@H](O)CC(=O)O)cc2Cl)c1C [Example 315] 9.62

Again, but for CS(=O)(=O)c1cncc(COc2nc(O[C@H]3CCc4c(-c5cccc6c5CC[C@@H]6Oc5nc(OCc6cncc(S(C)(=O)=O)c6)c(CN6C[C@@H](O)CC6=O)cc5Cl)cccc43)c(Cl)cc2CNC[C@@H](O)CC(=O)O)c1 [Example 693] 9.23

* * *

What pEC50 was measured for each of the following?
Molecular target: PD-1/PD-L1 interaction (Homo sapiens, UniProt Q9NZQ7)
Construct: expressed in transfected cells; host or cells: CHO cells (aAPC-PD-L1) co-cultured with Jurkat cells overexpressing PD-1 and an NFAT-luciferase reporter
Experiment: PD-1/PD-L1 NFAT reporter co-culture assay
Assay type: cell-based
Settings: Jurkat PD-1 NFAT-luciferase cells co-cultured with aAPC-PD-L1 CHO cells, 6 hrs at 37° C.; read-out: EC50 NFAT Luciferase
Convention used: pEC50 is expressed as -log10 of the molar concentration.

Which pEC50 value belongs to COc1nc(-c2cccc(-c3cccc(COc4cc(OCc5cncc(C#N)c5)c(CN5CC[C@@H](O)C5)cc4Cl)c3C)c2C)ccc1CNC[C@@H](O)CC(=O)O ? 6.15

Again, but for Cc1c(COc2cc(OCc3cncc(C#N)c3)c(CN3C[C@@H](O)C[C@H]3C(=O)O)cc2Cl)cccc1-c1cccc(-c2ccc3c(c2)CC[C@H]3N(C)C)c1C 6.58

Again, but for Cc1c(COc2cc(OCc3cncc(C#N)c3)c(CNC[C@@H](O)CC(=O)O)cc2Cl)cccc1-c1cccc(-c2ccc3c(c2)CC(=O)N3CCN(C)C)c1C 6.00

Again, but for COc1nc(O[C@H]2CCc3c(-c4cccc5c4CC[C@@H]5Oc4ccc(CNC[C@@H](O)CC(=O)O)c(OC)n4)cccc32)ccc1CNC[C@@H](O)CC(=O)O 5.96

Again, but for Cc1c(COc2cc(OCc3cncc(C#N)c3)c(CN3CCCC[C@H]3C(=O)O)cc2Cl)cccc1-c1cccc(-c2ccc(OCCNCCO)cc2)c1C 6.32

* * *

Biological target: PD-1/PD-L1 (Homo sapiens, UniProt Q9NZQ7)
Assay: PD-1/PD-L1 biochemical protein-protein interaction assay (ALPHA)
Details: 0.3 nM His tagged PD-L1, 2.5 nM biotinylated Fc-PD-1, 60 minutes at 25° C., read-out: IC50 PD-L1-PD-1 Alpha IC50-mono PD-L1-fcP-D1
pIC50: −log10 of the molar value.
pIC50 vs 9: at or above is class 1, below is class 0.

// inclusive: pIC50 at least 9? input: Cc1c(-c2ccc(OCCNC[C@@H](O)CC(=O)O)cc2)cccc1-c1cccc(-c2ccc(OCCNC[C@@H](O)CC(=O)O)cc2)c1C class 1

Again, but for N#Cc1cncc(COc2cc(O[C@H]3CCc4c(-c5cccc(-c6nc7ccc(CNC[C@@H]8CCC(=O)N8)cn7n6)c5Cl)cccc43)c(Cl)cc2CNC[C@@H]2CCC(=O)N2)c1 class 1

Again, but for Cc1c(-c2ccc(OCCNC[C@@H](O)CC(=O)O)cc2)cccc1-c1cccc2c1CC[C@@H]2Oc1nc(OCc2cncc(C#N)c2)c(CNC[C@@H](O)CC(=O)O)cc1Cl class 1

Again, but for Cc1c(COc2cc(OCc3cncc(C#N)c3)c(CN[C@@](C)(CO)C(=O)O)cc2Cl)cccc1-c1cccc(-c2ccc(CNCCCS(N)(=O)=O)cc2)c1C class 1

Again, but for Cc1c(COc2cc(OCc3cncc(C#N)c3)c(CN3CC[C@@H](O)C3)cc2Cl)cccc1-c1cccc(-c2ccc3c(c2)CCC3N2CC[C@@H](C(=O)O)C2)c1C (some centres unmarked) class 1

Again, but for C[C@@](CO)(NCc1cc(Br)c(O[C@H]2CCc3c(-c4cccc(-c5ccc(CNC[C@@H]6CCC(=O)N6)cc5)c4Cl)cccc32)nc1OCc1cncc(C#N)c1)C(=O)O class 1

Again, but for Cc1c(COc2cc(OCc3cncc(C#N)c3)c(CNC[C@@H](O)CC(=O)O)cc2Cl)cccc1-c1cccc(-n2cc(CN)nn2)c1C class 1

Again, but for N#Cc1cncc(COc2cc(OCc3cccc(-c4cccc(COc5cc(OCc6cncc(C#N)c6)c(CNC[C@@H](O)CC(=O)O)cc5Cl)c4Br)c3Br)c(Cl)cc2CNC[C@@H](O)CC(=O)O)c1 class 1

Again, but for Cc1c(COc2nc(OCc3cncc(C#N)c3)c(CNCCO)cc2Cl)cccc1-c1cccc(-c2ccc(C(O)CN(C)C)cc2)c1C (centres unmarked) class 0

Again, but for COc1nc(-c2cccc(-c3cccc(-c4ccc5ncc(CNCCO)n5c4)c3Cl)c2Cl)ccc1CNCCO class 0
